Molecular target: UniProt Q4U2R8
Sequence (Q4U2R8 whole entry): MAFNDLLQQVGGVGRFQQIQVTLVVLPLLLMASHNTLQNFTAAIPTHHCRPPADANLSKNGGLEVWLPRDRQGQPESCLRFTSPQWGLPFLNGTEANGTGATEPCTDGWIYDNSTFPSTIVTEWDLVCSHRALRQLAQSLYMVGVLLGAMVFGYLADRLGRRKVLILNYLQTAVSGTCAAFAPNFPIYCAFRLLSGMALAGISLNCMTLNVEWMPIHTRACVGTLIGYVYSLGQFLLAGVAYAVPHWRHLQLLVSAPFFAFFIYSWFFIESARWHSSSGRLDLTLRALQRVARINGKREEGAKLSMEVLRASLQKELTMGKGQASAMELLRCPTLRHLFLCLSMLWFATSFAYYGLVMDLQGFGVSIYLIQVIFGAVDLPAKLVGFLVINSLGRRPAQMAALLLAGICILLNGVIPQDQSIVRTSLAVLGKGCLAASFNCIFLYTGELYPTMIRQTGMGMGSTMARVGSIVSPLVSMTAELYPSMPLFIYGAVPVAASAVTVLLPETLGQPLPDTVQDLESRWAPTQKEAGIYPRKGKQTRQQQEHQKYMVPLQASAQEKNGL
Assay: transporter inhibition in vitro
Type: in vitro ADME
Recorded metric: inhibition at 50 µM

INPUT: // lookup inhibition at 50 µM for C[C@H](CCOc1cccc(CC(=O)O)c1)N(Cc1cccc(C(F)(F)F)c1Cl)CC(c1ccccc1)c1ccccc1
OUTPUT: < 50%

----------
Assay: oral PK study in Sprague-Dawley rats
Assay type: in vivo
Conditions: Sprague-Dawley, rat, plasma, po; female rats; read-out: mean apparent oral t½ (converted)
Recorded metric: half-life

INPUT: So what's the measured half-life for this one? C[C@H](CCOc1cccc(CC(=O)O)c1)N(Cc1cccc(C(F)(F)F)c1Cl)CC(c1ccccc1)c1ccccc1
OUTPUT: 6.5 h

----------
Test: oral PK study in Sprague-Dawley rats
Format: in vivo
Conditions: rat, plasma; Sprague-Dawley rats, 30 mg/kg oral dose; read-out: combined, mean % F
Recorded metric: bioavailability

INPUT: What value of bioavailability has been reported for the following compound? C[C@H](CCOc1cccc(CC(=O)O)c1)N(Cc1cccc(C(F)(F)F)c1Cl)CC(c1ccccc1)c1ccccc1
OUTPUT: ~31%

----------
Experiment: oral PK study in CD-1 mice
Format: in vivo
Settings: both sexes, mouse, plasma, po; CD-1 mice, males and females; read-out: time to maximum plasma concentration (Tmax)
Recorded metric: Tmax

INPUT: # lookup: Tmax of C[C@H](CCOc1cccc(CC(=O)O)c1)N(Cc1cccc(C(F)(F)F)c1Cl)CC(c1ccccc1)c1ccccc1
OUTPUT: 2 to 8 h

----------
Test: oral PK study in Cynomolgus monkeys
Format: in vivo
Conditions: cynomolgus monkey, plasma, po, read-out: mean oral t½
Recorded metric: half-life

INPUT: I have this molecule here, C[C@H](CCOc1cccc(CC(=O)O)c1)N(Cc1cccc(C(F)(F)F)c1Cl)CC(c1ccccc1)c1ccccc1 , and I need its recorded half-life.
OUTPUT: 5.5 to 8 h

----------
Assay: oral PK study in CD-1 mice
Assay type: in vivo
Conditions: mouse, plasma; CD-1 mice, oral; read-out: absolute oral bioavailability (% F)
Recorded metric: bioavailability

INPUT: Form field: reported bioavailability of C[C@H](CCOc1cccc(CC(=O)O)c1)N(Cc1cccc(C(F)(F)F)c1Cl)CC(c1ccccc1)c1ccccc1
OUTPUT: > 100%

----------
Assay: oral PK study in male Beagle dogs
Type: in vivo
Settings: dog, plasma, oral dose
Recorded metric: Tmax

INPUT: Tmax lookup needed for C[C@H](CCOc1cccc(CC(=O)O)c1)N(Cc1cccc(C(F)(F)F)c1Cl)CC(c1ccccc1)c1ccccc1 , thanks.
OUTPUT: 4 to 8 h

----------
Target: OATP1B3 (Homo sapiens, UniProt Q9NPD5)
Sequence (Q9NPD5 whole entry): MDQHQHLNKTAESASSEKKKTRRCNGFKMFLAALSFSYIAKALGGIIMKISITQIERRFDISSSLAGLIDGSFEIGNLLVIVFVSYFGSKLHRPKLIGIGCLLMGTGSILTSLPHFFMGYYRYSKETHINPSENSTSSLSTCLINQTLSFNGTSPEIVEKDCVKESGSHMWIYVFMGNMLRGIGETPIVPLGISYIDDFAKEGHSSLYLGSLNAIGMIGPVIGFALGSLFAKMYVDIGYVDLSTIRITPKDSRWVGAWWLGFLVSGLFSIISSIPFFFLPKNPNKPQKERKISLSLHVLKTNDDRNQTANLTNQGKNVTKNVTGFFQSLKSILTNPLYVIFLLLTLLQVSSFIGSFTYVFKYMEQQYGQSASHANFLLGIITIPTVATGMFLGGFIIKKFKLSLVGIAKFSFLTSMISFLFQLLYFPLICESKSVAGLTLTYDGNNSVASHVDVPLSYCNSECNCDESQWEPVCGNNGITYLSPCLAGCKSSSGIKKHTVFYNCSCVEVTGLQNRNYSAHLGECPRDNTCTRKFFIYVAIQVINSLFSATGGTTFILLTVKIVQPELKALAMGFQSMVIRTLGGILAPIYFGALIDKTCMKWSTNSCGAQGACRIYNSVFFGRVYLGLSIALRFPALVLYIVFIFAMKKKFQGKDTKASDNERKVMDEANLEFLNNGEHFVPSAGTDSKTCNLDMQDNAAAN
Test: uptake transporter inhibition in vitro
Recorded metric: pIC50
Numbers only, as −log10 of the molar value.

INPUT: Look up pIC50: C[C@H](CCOc1cccc(CC(=O)O)c1)N(Cc1cccc(C(F)(F)F)c1Cl)CC(c1ccccc1)c1ccccc1
OUTPUT: 5.43

----------
Test: oral PK study in male Beagle dogs
Assay type: in vivo
Conditions: dog, plasma, po, read-out: mean apparent oral t½
Recorded metric: half-life

INPUT: Requested field: half-life. Item: C[C@H](CCOc1cccc(CC(=O)O)c1)N(Cc1cccc(C(F)(F)F)c1Cl)CC(c1ccccc1)c1ccccc1
OUTPUT: 5 to 6.7 h

----------
Assay: oral PK study in CD-1 mice
Format: in vivo
Details: CD-1, mouse, plasma, po; mice; read-out: mean apparent oral half-life (t½)
Recorded metric: half-life

INPUT: Would you kindly share the measured half-life for C[C@H](CCOc1cccc(CC(=O)O)c1)N(Cc1cccc(C(F)(F)F)c1Cl)CC(c1ccccc1)c1ccccc1 ?
OUTPUT: 390 to 480 min
